ASSAYED_SYSTEM: HA of ca A/swine/Missouri/06 (H2N3) (influenza A virus)
ASSAY_PROTOCOL: cell-based or functional assay
Below is a list of entries, each paired with its recorded Neutralization IC50, H2-MO06 value.
PROPERTY: Neutralization IC50, H2-MO06 (µg/mL)

Antibody 3 (antibody, V domains shown) VH: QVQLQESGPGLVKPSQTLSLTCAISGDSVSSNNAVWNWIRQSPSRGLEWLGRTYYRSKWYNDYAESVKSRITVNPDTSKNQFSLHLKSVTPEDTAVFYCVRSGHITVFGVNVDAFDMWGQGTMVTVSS VL: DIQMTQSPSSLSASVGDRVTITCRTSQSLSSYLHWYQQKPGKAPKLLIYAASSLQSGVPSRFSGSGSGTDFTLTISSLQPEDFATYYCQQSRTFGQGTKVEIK :: 1.09
Antibody 12 (antibody, V domains shown) VH: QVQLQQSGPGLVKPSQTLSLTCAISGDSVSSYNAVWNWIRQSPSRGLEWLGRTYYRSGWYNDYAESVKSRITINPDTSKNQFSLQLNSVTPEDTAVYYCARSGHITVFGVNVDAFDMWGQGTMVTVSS VL: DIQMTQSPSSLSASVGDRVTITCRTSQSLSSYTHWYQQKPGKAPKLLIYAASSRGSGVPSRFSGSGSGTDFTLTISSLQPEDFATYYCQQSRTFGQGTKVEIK :: 0.53
Antibody 11 (antibody, V domains shown) VH: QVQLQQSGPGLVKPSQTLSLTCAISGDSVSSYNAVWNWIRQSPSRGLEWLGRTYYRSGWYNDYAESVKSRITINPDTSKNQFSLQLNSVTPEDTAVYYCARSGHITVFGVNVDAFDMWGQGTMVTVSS VL: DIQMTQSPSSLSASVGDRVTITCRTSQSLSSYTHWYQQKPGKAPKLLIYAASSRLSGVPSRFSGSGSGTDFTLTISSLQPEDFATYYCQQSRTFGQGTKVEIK :: 0.6
